Catalogue of molecules with associated Retention_time
Experiment: Retention time of the compound in Sprague-Dawley rat bile by UPLC/Q-TOF analysis
Format: ADME
Respond with the bare value in min.

Some solved cases for reference:
| molecule | value_kind | numeric_readout |
| --- | --- | --- |
| CC(CC(=O)CC(C)[C@H]1CC(=O)[C@@]2(C)C3=C(C(=O)C[C@]12C)[C@@]1(C)CCC(=O)C(C)(C)[C@@H]1C[C@@H]3O)C(=O)O (stereo partly drawn) | Retention_time | 11.3 |
| CC(CC(=O)CC(C)C1=CC(=O)[C@@]2(C)C3=C(C(=O)C[C@]12C)[C@@]1(C)CCC(=O)C(C)(C)[C@@H]1C[C@@H]3O)C(=O)O (stereo partly drawn) | Retention_time | 11.9 |

Exam item: I would be grateful if you could share the reported Retention_time for CC(CC(=O)CC(C)(O)C(=O)O)[C@H]1CC(=O)[C@@]2(C)C3=C(C(=O)C[C@]12C)[C@@]1(C)CC(O)C(=O)C(C)(C)[C@@H]1C[C@@H]3O (stereo partly drawn) .
Marked response: 8.2

###

Test: Drug excretion in Sprague-Dawley rat bile treated with ganoderic acid D at 10 mg/kg, po after 12 hrs by UPLC/Q-TOF analysis
Assay type: ADME, organism-based
Parameters: dose 10 mg/kg, route oral
Conditions: in vivo
value_kind: Drug excretion

| compound | value_kind | result |
| --- | --- | --- |
| CC(CC(=O)CC(C)(O)C(=O)O)[C@H]1CC(=O)[C@@]2(C)C3=C(C(=O)C[C@]12C)[C@@]1(C)CCC(=O)C(C)(CO)[C@@H]1C[C@@H]3O (some centres undefined) | Drug excretion | metabolite_detected |
| CC(CC(=O)CC(C)(O)C(=O)O)[C@H]1CC(=O)[C@@]2(C)C3=C(C(=O)C[C@]12C)[C@@]1(C)CC(O)C(=O)C(C)(C)[C@@H]1C[C@@H]3O (some centres undefined) | Drug excretion | metabolite_detected |
| CC(CC(=O)CC(C)C1=CC(=O)[C@@]2(C)C3=C(C(=O)C[C@]12C)[C@@]1(C)CCC(=O)C(C)(C)[C@@H]1C[C@@H]3O)C(=O)O (some centres undefined) | Drug excretion | metabolite_detected |
| CC(CC(=O)CC(CO)C(=O)O)[C@H]1CC(=O)[C@@]2(C)C3=C(C(=O)C[C@]12C)[C@@]1(C)CC(O)C(=O)C(C)(C)[C@@H]1C[C@@H]3O (some centres undefined) | Drug excretion | metabolite_detected |

###

Assay: Retention time of the compound in Sprague-Dawley rat bile by UPLC/Q-TOF analysis
Type: ADME
Catalogue of compounds with associated Retention_time
Respond with the bare value in min.

Some solved cases for reference:
| compound | Retention_time (min) |
| --- | --- |
| CC(CC(=O)CC(C)(O)C(=O)O)[C@H]1CC(=O)[C@@]2(C)C3=C(C(=O)C[C@]12C)[C@@]1(C)CC(O)C(=O)C(C)(CO)[C@@H]1C[C@@H]3O (stereo partly drawn) | 5.9 |
| CC(CC(=O)CC(CO)C(=O)O)[C@H]1CC(=O)[C@@]2(C)C3=C(C(=O)C[C@]12C)[C@@]1(C)CCC(=O)C(C)(C)[C@@H]1C[C@@H]3O (stereo partly drawn) | 9.8 |
| CC(CC(=O)CC(C)[C@H]1CC(=O)[C@@]2(C)C3=C(C(=O)C[C@]12C)[C@@]1(C)CC(O)C(=O)C(C)(C)[C@@H]1C[C@@H]3O)C(=O)O (stereo partly drawn) | 9.5 |
| CC(CC(=O)CC(C)[C@H]1CC(=O)[C@@]2(C)C3=C(C(=O)C[C@]12C)[C@@]1(C)CCC(O)C(C)(C)[C@@H]1C[C@@H]3O)C(=O)O (stereo partly drawn) | 9.9 |
| CC(CC(=O)CC(C)(O)C(=O)O)[C@H]1CC(=O)[C@@]2(C)C3=C(C(=O)C[C@]12C)[C@@]1(C)CCC(=O)C(C)(CO)[C@@H]1C[C@@H]3O (stereo partly drawn) | 7.5 |

Exam item: I would be grateful if you could share the reported Retention_time for CC(CC(=O)CC(C)(O)C(=O)O)[C@H]1CC(=O)[C@@]2(C)C3=C(C(=O)C[C@]12C)[C@@]1(C)CCC(=O)C(C)(C)[C@@H]1C[C@@H]3O (stereo partly drawn) .
Marked response: 10

Exam item: I would be grateful if you could share the reported Retention_time for CC(CC(=O)CC(C)[C@H]1CC(=O)[C@@]2(C)C3=C(C(=O)C[C@]12C)[C@@]1(C)CC(O)C(=O)C(C)(CO)[C@@H]1C[C@@H]3O)C(=O)O (stereo partly drawn) .
Marked response: 7.3

Exam item: I would be grateful if you could share the reported Retention_time for CC(CC(=O)CC(C)[C@H]1CC(=O)[C@@]2(C)C3=C(C(=O)C[C@]12C)[C@@]1(C)CCC(OS(=O)(=O)O)C(C)(C)[C@@H]1C[C@@H]3O)C(=O)O (stereo partly drawn) .
Marked response: 8.5
